Below: a set of entries, each annotated with reported Activity.
Tested on: Mus musculus
Experiment: Hepatotoxicity in Swiss albino mouse assessed as TBARS production per mg of protein at 3 mg/kg, po after 30 days (reference value: 0.26+/-0.02 nmol)
Format: toxicity, organism-based
Set-up: dose 3 mg/kg, route oral
Conditions: in vivo, 720 h

[
  {
    "COMPOUND SMILES": "N#C[Se]CCCCCN1C(=O)c2cccc3c(N)ccc(c23)C1=O",
    "Activity": "0.22 nM"
  },
  {
    "COMPOUND SMILES": "N#C[Se]CCCCCN1C(=O)c2cccc3cccc(c23)C1=O",
    "Activity": "0.24 nM"
  },
  {
    "COMPOUND SMILES": "N#C[Se]CCCCCN1C(=O)c2cccc3cc([N+](=O)[O-])cc(c23)C1=O",
    "Activity": "0.25 nM"
  },
  {
    "COMPOUND SMILES": "N#C[Se]CCCCCN1C(=O)c2cccc3c(Cl)ccc(c23)C1=O",
    "Activity": "0.26 nM"
  }
]
